- Tested on: Saccharomyces cerevisiae
- test_method_notes: protein stability index of tFT-peptide fusion (C-terminal peptide) (PSI (0-1 scale)); higher = more stable (slower turnover)
- study_conditions: genetic background: das1 deletion; temperature: 30 C
measurement_label: protein stability index

# chain_sequence, value_measured
measured = [
    ("STTMNFNYQTKV [SDD1 C-terminal 12 aa]", 0.696),
    ("INILPVRKKKKV [SAS4 C-terminal 12 aa]", 0.705),
    ("NTFTEHNSNIYY [SPT10 C-terminal 12 aa]", 0.704),
    ("SDENIQPELRGQ [ABF1 C-terminal 12 aa]", 0.675),
    ("KHQFLTKAKRFF [FET3 C-terminal 12 aa]", 0.693),
    ("TEISRHFIVVFV [YHR182C-A C-terminal 12 aa]", 0.306),
    ("NEGSEEEPEIDQ [BDP1 C-terminal 12 aa]", 0.688),
    ("IKRRSNVGVVML [NMT1 C-terminal 12 aa]", 0.665),
    ("LVVARDMLLASL [SPC25 C-terminal 12 aa]", 0.647),
]

These data points were gathered from the supplement of paper PMC10724198.
